- TEST_TARGET: CUG-BP2 RRM3 Q497A (UniProt O95319 416-508, Q497A;Y508W)
- Sequence (O95319 416-508 Q497A/Y508W): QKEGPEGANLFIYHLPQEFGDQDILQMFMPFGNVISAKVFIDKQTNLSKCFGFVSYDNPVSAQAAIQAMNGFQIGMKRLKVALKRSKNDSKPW
- MEASUREMENT_DESCRIPTION: NMR 15N-HSQC titration; 20 mM K phosphate pH 5.8, 10 mM NaCl, 0.1% beta-mercaptoethanol, 25 C (NMR titrations and ITC); hnRNP A1: 10 mM Na phosphate pH 6.5, 10 mM beta-mercaptoethanol
- EXPERIMENTAL_SETUP: protein: recombinant; tags: His-tag (pET28a)
METRIC: Kd (µM)

binder="UUUAA (ssRNA)" observed=60
